# assay_system: Human Cav3.1 (Homo sapiens (Human))
# Sequence (O43497 whole entry): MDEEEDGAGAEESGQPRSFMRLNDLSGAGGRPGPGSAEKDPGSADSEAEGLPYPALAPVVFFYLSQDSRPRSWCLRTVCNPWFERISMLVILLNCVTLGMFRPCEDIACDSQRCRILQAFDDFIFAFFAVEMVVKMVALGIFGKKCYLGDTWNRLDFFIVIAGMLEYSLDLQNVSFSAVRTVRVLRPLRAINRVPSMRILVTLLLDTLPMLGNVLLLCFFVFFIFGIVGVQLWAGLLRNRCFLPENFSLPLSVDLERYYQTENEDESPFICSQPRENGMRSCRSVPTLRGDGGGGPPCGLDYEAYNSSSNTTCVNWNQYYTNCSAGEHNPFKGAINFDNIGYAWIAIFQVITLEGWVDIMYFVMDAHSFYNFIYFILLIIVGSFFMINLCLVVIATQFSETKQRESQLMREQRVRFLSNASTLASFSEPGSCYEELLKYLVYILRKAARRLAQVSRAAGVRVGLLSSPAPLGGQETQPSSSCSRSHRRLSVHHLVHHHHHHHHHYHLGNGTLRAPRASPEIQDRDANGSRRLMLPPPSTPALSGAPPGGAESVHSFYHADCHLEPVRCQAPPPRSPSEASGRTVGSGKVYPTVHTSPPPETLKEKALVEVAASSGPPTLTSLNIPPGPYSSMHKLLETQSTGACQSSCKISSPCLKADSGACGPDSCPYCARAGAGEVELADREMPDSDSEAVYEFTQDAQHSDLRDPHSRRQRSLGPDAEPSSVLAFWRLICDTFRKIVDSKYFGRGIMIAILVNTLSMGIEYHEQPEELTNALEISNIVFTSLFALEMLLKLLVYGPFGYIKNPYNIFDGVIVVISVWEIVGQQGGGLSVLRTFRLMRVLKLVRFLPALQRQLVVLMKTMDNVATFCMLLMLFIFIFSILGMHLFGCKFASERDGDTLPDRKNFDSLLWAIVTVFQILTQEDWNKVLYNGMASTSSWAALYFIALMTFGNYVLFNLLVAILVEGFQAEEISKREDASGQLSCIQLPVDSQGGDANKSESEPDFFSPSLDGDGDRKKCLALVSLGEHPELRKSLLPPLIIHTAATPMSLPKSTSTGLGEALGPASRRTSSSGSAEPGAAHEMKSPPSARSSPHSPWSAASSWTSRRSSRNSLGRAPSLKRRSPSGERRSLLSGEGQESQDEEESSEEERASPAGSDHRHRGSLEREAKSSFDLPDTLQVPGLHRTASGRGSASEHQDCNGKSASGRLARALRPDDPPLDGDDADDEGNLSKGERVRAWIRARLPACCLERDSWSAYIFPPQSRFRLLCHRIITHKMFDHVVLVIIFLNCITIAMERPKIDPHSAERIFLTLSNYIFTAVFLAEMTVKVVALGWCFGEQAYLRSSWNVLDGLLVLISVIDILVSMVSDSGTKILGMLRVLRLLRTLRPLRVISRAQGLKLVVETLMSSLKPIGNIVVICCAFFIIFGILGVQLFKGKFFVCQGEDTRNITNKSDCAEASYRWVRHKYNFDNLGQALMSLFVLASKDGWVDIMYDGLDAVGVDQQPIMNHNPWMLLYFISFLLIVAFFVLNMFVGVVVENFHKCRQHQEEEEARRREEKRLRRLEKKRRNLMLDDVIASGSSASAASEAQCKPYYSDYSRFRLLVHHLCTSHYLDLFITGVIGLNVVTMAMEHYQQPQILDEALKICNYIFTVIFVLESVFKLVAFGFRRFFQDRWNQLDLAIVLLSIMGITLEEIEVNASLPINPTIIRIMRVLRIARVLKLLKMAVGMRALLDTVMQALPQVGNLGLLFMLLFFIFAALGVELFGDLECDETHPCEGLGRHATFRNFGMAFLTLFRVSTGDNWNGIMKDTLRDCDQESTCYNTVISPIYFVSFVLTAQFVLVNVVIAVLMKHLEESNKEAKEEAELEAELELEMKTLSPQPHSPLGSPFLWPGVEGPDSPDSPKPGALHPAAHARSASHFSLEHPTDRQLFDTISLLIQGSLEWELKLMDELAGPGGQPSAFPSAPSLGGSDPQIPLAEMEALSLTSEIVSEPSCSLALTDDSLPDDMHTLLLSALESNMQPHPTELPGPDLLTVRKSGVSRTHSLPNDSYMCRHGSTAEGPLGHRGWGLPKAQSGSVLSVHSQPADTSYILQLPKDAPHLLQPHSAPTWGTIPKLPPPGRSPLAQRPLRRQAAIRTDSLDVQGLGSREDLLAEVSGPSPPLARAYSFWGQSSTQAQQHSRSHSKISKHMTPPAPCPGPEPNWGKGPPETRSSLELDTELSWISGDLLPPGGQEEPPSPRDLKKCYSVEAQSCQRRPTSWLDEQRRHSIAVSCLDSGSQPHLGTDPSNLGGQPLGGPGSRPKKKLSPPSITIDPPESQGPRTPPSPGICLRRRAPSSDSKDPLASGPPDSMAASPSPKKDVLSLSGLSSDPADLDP
# method_summary: Human Cav3.1 calcium channel patch clamp assay (SyncroPatch 384PE, HEK-293 natClytin/TASK1+Cav3.1 cell line)
# Assay type: cell-based
# experimental_parameters: voltage dependent block (VDB); read-out: Cav3.1 (VDB) IC50
reported_property: IC50 (nM)
Provide only the numeric value, understood in nM.

# query: IC50 of entry `O=C(CN1CC2(CCC(C(=O)Nc3cc(F)cc(Cl)c3)CC2)C1)OC1CCCC1`
709

// query: `CC1(CCN2CC3(CCC(C(=O)Nc4cc(F)cc(C(F)F)c4)CC3)C2)CCC1`
300

Then `CC(C)(C)NC(=O)CN1CC2(CCC(F)(C(=O)Nc3cc(F)cc(C(F)F)c3)CC2)C1` ?
469

Also check `CC(C)(C)c1coc(CN2CC3(CCC(C(=O)Nc4cc(F)cc(Cl)c4)CC3)C2)n1`
988

Next entry: `CC(C)(C)CCN1CC2(CCC(C(=O)Nc3cc(F)cc(C(F)F)c3)CC2)C1`
339

Follow-up item: `CC(C)(C)NC(=O)CN1CC2(CCC(C(=O)Nc3cccc(OC(F)(F)F)c3)CC2)C1`
492

Please do the same for `COc1cc(F)cc(NC(=O)C2CCC3(CC2)CN(CC(=O)NC2(C(F)(F)F)CCC2)C3)c1` as well.
110

Same again, this time with `O=C(CN1CC2(CCC(C(=O)Nc3cc(F)cc(Cl)c3)CC2)C1)NC1(C(F)F)CC1`
283

Repeat for the following compound: `Cc1cc(Cl)cc(NC(=O)C2CCC3(CC2)CN(CC2(C#N)CCOCC2)C3)c1`
1200

Could you do the same for `COc1cc(F)cc(NC(=O)C2CCC3(CC2)CN(CC(F)(F)C2CCCCC2)C3)c1` , please?
802

Same for `O=C(CN1CC2(CCC(CNC(=O)c3cc(F)cc(Cl)c3)CC2)C1)NC1(C(F)(F)F)CC1`
373

Next compound up: `O=C(Nc1cc(F)cc(Cl)c1)C1CCC2(CC1)CN(CCS(=O)(=O)c1ccccc1)C2`
576

Cool, now `O=C(Nc1cc(F)cc(Cl)c1)C1CCC2(CC1)CN(CC1CCC(F)(F)CC1)C2`
440

Further, for `O=C(Nc1cc(F)cc(C(F)F)c1)C1CCC2(CC1)CN(CC1CCC(F)(F)CC1)C2` ?
370

Now the compound `CC(C)(CCN1CC2(CCC(C(=O)Nc3cc(F)cc(C(F)F)c3)CC2)C1)C(F)(F)F`
327

# iterate: `N#CC1(CN2CC3(CCC(C(=O)Nc4cc(F)cc(Cl)c4)CC3)C2)CCCCC1`
352
